// data source = ChEMBL document CHEMBL5442219

Biological target: Sigma intracellular receptor 2 (Homo sapiens)
Settings: Compound concentration 10 µM
Description: PDSP Primary Binding target: TMEM97 - Compounds are tested at 10 uM concentration, plate are incubated at room temperature in the dark for 90 minutes. Reaction are stopped by vacuum filtration onto 0.3% polyethyleneimine soaked filter mats using Filtermate harvester. Scintilation cocktail is then melted onto microwave-dried filters on a hot plate and the radio activity is counted in Microbia counter.
Readout Label: inhibition (%)
Output spec: scalar in %, unitless text.

Here is how some molecules turned out for inhibition.
# Molecule, inhibition (%)
rows = [
    ("COc1cc2nc(N3CCN(C(=O)c4ccco4)CC3)nc(N)c2cc1OC", 27.6),
    ("CCCCCCCCCCCCCCCCOC[C@H](COP(=O)([O-])OCC[N+](C)(C)C)OC(C)=O", 57.9),
    ("CNc1nc(NCc2ccc(NS(C)(=O)=O)cc2Cl)cc(-c2ccccn2)n1", 39.1),
    ("O=C(O)Cn1c(C(=O)Nc2nc(-c3ccccc3Cl)cs2)cc2ccccc21", 36.6),
    ("Clc1cccc(Cl)c1NC1=NCCN1", 66.3),
    ("O=c1ccn([C@@H]2O[C@H](COP(=O)(O)OP(=O)(O)OP(=O)(O)O)[C@@H](O)[C@H]2O)c(=O)[nH]1", 34),
    ("CCc1nn(CCCN2CCN(c3cccc(Cl)c3)CC2)c(=O)n1CCOc1ccccc1", 91.7),
    ("Oc1ccc2c3c1O[C@H]1c4[nH]c5c(c4C[C@@]4(O)[C@@H](C2)N(CC2CC2)CC[C@]314)C[C@@]1(O)[C@H]2Cc3ccc(O)c4c3[C@@]1(CCN2CC1CC1)[C@H]5O4", 30.2),
    ("COc1ccc(OC(F)(F)F)cc1CN[C@H]1CCCN[C@H]1c1ccccc1", 90.5),
    ("N#Cc1c[nH]c2c(C(=O)N3CCN(CCc4ccc(F)cc4)CC3)cccc12", 68.2),
]

Consider the molecule CC(C)NCC(O)COc1cccc2ccccc12 (stereo not drawn) and give its recorded inhibition.
90

Indicate the recorded inhibition value for this molecule: OCc1cc(C(O)CNCCCCCCOCCCCc2ccccc2)ccc1O (stereo not drawn)
102

Output inhibition of CCCn1c(=O)c2[nH]c(-c3cnn(Cc4cccc(C(F)(F)F)c4)c3)nc2n(CC)c1=O
18

Tell me measured inhibition for Cc1cccc([C@H](C)c2c[nH]cn2)c1C please.
37.8

State its inhibition for this molecule: S=C(NCCCc1c[nH]cn1)NCCCN(Cc1ccc(Cl)c(Cl)c1)c1ccc(Br)cn1
97.7

Report measured inhibition; entry is Cc1c(C(=O)NC2CCCCC2)sc2nc3ccc(N)cc3n12
10.3

Hello, please tell me recorded inhibition for this one: Cc1nc2sccn2c(=O)c1CCN1CCC(=C(c2ccc(F)cc2)c2ccc(F)cc2)CC1
98.7

Please supply the value of reported inhibition for the item CCOC(=O)c1cc(C#N)c(N2CCC(C(=O)NS(=O)(=O)Cc3ccccc3)CC2)nc1C
4.45

State, in one line, measured inhibition of CN(C)C(=O)C(CCN1CCC(O)(c2ccc(Cl)cc2)CC1)(c1ccccc1)c1ccccc1
95.5

###

Target: Histamine H1 receptor (Homo sapiens)
Details: Compound concentration 10 µM
Description: PDSP Primary Binding target: HRH1 - Compounds are tested at 10 uM concentration, plate are incubated at room temperature in the dark for 90 minutes. Reaction are stopped by vacuum filtration onto 0.3% polyethyleneimine soaked filter mats using Filtermate harvester. Scintilation cocktail is then melted onto microwave-dried filters on a hot plate and the radio activity is counted in Microbia counter.
# cutoff 10% applies to inhibition; >= gives 1 (yes), < gives 0 (no)

Check out these entries, answers already filled in.
# Compound, Discrete Label
measured = [
    ("c1cc(CN2CCCNCCNCCCNCC2)ccc1CN1CCCNCCNCCCNCC1", "0 (no)"),
    ("Cc1nn(C)c(C)c1-c1cccc2c1CC[C@H](N(C)C)C2", "0 (no)"),
    ("Cc1ccc2c(c1)c1c(n2CCc2ccc(C)nc2)CCN(C)C1", "1 (yes)"),
    ("O=C1N/C(=N/c2ccccc2F)S/C1=C\\c1ccc(C(=O)O)cc1", "1 (yes)"),
    ("CCN(CC)CCCCC1CCN(CC(=O)N2c3ccccc3C(=O)Nc3cccnc32)CC1", "0 (no)"),
]

Tell me whether inhibition is at least 10% here: Cc1c(C(=O)NC2CCCCC2)sc2nc3ccc(N)cc3n12
1 (yes)

Form field: inhibition at least 10%? Entry: CCCCN(CC)c1nc(C)nc2c1c(C)cn2-c1c(C)cc(C)cc1C
1 (yes)

###

Target: UniProt P21918
Sequence (P21918 whole entry): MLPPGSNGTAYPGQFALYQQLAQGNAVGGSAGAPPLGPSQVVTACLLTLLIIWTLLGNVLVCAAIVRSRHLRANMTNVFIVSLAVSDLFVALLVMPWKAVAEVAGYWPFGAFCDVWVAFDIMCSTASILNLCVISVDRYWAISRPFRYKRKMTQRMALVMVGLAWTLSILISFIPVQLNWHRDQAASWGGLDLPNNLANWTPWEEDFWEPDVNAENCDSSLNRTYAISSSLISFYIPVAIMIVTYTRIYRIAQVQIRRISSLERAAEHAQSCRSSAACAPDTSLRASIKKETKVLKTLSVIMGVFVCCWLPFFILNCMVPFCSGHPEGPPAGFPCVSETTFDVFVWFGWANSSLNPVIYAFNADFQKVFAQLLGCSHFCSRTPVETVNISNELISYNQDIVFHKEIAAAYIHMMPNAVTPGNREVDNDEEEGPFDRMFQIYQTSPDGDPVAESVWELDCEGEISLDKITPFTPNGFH
Details: Compound concentration 10 µM
Description: PDSP Primary Binding target: DRD5 - Compounds are tested at 10 uM concentration, plate are incubated at room temperature in the dark for 90 minutes. Reaction are stopped by vacuum filtration onto 0.3% polyethyleneimine soaked filter mats using Filtermate harvester. Scintilation cocktail is then melted onto microwave-dried filters on a hot plate and the radio activity is counted in Microbia counter.
Readout Label: inhibition (%)
Your answer should be a plain number; it is taken to be in %.

# annotated cases, reported inhibition shown
# Compound, Reported Result
measured = [
    ("NC[C@H](O)c1ccc(O)c(O)c1", 34.8),
    ("NC[C@@H]1O[C@H](C23CC4CC(CC(C4)C2)C3)Cc2c1ccc(O)c2O", 82.7),
    ("Cc1nc(-c2ccc(C(F)(F)F)cc2)sc1COc1ccc([C@H](CC(=O)O)c2ccon2)cc1", -0.99),
]

Next molecule, please.
Consider the molecule Cc1nc2sccn2c(=O)c1CCN1CCC(=C(c2ccc(F)cc2)c2ccc(F)cc2)CC1 and give its recorded inhibition.
74.1

###

Molecular target: Alpha-1B adrenergic receptor (Homo sapiens) (UniProt P35368)
Sequence (P35368 whole entry): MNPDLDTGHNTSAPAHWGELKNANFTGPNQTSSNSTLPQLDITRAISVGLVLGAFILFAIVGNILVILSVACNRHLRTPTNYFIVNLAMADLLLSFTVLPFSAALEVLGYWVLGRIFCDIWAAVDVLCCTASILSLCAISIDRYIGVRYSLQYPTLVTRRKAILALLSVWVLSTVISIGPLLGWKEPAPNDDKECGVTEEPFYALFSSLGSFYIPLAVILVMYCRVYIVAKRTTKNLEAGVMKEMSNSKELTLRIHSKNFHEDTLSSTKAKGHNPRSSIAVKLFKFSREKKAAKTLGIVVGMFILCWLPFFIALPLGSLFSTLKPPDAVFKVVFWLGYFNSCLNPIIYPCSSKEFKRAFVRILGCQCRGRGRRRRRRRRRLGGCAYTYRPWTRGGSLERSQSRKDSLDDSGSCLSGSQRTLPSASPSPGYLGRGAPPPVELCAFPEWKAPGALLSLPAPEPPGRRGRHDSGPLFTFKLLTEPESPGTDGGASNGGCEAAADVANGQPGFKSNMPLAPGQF
Settings: Compound concentration 10 µM
Description: PDSP Primary Binding target: ADRA1B - Compounds are tested at 10 uM concentration, plate are incubated at room temperature in the dark for 90 minutes. Reaction are stopped by vacuum filtration onto 0.3% polyethyleneimine soaked filter mats using Filtermate harvester. Scintilation cocktail is then melted onto microwave-dried filters on a hot plate and the radio activity is counted in Microbia counter.
Reported inhibition values follow for various molecules
Quick reminder: number only, in %, skip the unit.

In the examples that follow, each entry is paired with its recorded inhibition.
# Compound, inhibition, %
data = [
    ("CCCCCCCCCCCCCCCCOC[C@H](COP(=O)([O-])OCC[N+](C)(C)C)OC(C)=O", 71.6),
    ("CO[C@@H]1COCC[C@@H]1N[C@@H]1CC[C@@](C(=O)N2CCc3ncc(C(F)(F)F)cc3C2)(C(C)C)C1", 2.58),
    ("CCc1cc2c(c(CC)n1)CCC(=O)N2Cc1ccc(-c2ccccc2-c2nnn[nH]2)cc1", 25.9),
]

We next turn to a different molecule, shown below.
Indicate the recorded inhibition value for this molecule: NCCc1cn(S(=O)(=O)c2c(Cl)nc3sccn23)c2ccccc12
51.4

###

Biological target: Sigma non-opioid intracellular receptor 1 (Homo sapiens) (UniProt Q99720)
Sequence (Q99720 whole entry): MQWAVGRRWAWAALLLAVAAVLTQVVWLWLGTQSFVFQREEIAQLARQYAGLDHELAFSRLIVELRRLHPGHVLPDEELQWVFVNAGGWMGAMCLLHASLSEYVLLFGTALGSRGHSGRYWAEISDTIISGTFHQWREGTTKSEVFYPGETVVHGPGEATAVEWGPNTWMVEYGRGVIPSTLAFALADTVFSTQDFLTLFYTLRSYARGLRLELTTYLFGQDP
Details: Compound concentration 10 µM
Description: PDSP Primary Binding target: SIGMAR1 - Compounds are tested at 10 uM concentration, plate are incubated at room temperature in the dark for 90 minutes. Reaction are stopped by vacuum filtration onto 0.3% polyethyleneimine soaked filter mats using Filtermate harvester. Scintilation cocktail is then melted onto microwave-dried filters on a hot plate and the radio activity is counted in Microbia counter.
Readout Label: inhibition (%)
// units = %; emit number, no label

# Compound, Measurement Target, Readout Label, Reported Result
measured = [
    ("CCc1cc2c(cc1CC)CC(NC[C@H](O)c1ccc(O)c3[nH]c(=O)ccc13)C2", "Sigma non-opioid intracellular receptor 1 (Homo sapiens) (UniProt Q99720)", "inhibition", -7.63),
    ("O=c1ccn([C@@H]2O[C@H](COP(=O)(O)OP(=O)(O)O)[C@@H](O)[C@H]2O)c(=O)[nH]1", "Sigma non-opioid intracellular receptor 1 (Homo sapiens) (UniProt Q99720)", "inhibition", 4.23),
    ("Cc1c(OCc2cccc(-c3ccc(C(=O)O)cc3)c2)cc2c(c1C)C(=O)C(C1CCCC1)C2 (stereo unspecified)", "Sigma non-opioid intracellular receptor 1 (Homo sapiens) (UniProt Q99720)", "inhibition", -6.04),
    ("CCCCc1nc(Cl)c(CO)n1Cc1ccc(-c2ccccc2-c2nnn[nH]2)cc1", "Sigma non-opioid intracellular receptor 1 (Homo sapiens) (UniProt Q99720)", "inhibition", 9.91),
]

Write down the reported inhibition (system: Sigma non-opioid intracellular receptor 1 (Homo sapiens) (UniProt Q99720)) of N#Cc1c(N)nc(SCc2csc(-c3ccc(Cl)cc3)n2)c(C#N)c1-c1ccc(OCCO)cc1
39

# return inhibition of Cc1nc(C#Cc2ccnc(Cl)c2)c(C)n1-c1ccc(OC(F)(F)F)cc1 (system: Sigma non-opioid intracellular receptor 1 (Homo sapiens) (UniProt Q99720))
56.3

###

Target: 5-hydroxytryptamine receptor 2B (Homo sapiens)
Conditions: Compound concentration 10 µM; call rule not given here
Your response should consist of one outcome taken from active, inactive

Solved entries:
# Compound, Discrete Label
measured = [
    ("COc1ccc2[nH]cc(CCNC(C)=O)c2c1", "inactive"),
    ("CCCCCCCCCCCCC/C=C/[C@@H](O)[C@@H](N)COP(=O)(O)O", "inactive"),
    ("Cc1cc(C)c(N)c(C#Cc2cccc(F)c2)n1", "inactive"),
    ("Nc1nc(NCCc2ccc(O)cc2)nc2nc(-c3ccco3)nn12", "active"),
    ("CCc1ccc(OCc2ccccc2C(=O)Nc2ccc3nc(C)cc(N)c3c2)cc1", "active"),
    ("NCCc1c[nH]c2ccc(C(N)=O)cc12", "active"),
    ("CN(C)C(=O)N[C@H]1CC[C@H](CCN2CCN(c3cccc(Cl)c3Cl)CC2)CC1", "active"),
]

Note: attention shifts to another entry.
Give the logged outcome of this assay for the following compound: CCc1cc(C(C)=O)c(O)cc1OCCCCCC(C)(C)c1nn[nH]n1
active

###

Target: UniProt:P07550
Sequence (P07550 whole entry, looked up): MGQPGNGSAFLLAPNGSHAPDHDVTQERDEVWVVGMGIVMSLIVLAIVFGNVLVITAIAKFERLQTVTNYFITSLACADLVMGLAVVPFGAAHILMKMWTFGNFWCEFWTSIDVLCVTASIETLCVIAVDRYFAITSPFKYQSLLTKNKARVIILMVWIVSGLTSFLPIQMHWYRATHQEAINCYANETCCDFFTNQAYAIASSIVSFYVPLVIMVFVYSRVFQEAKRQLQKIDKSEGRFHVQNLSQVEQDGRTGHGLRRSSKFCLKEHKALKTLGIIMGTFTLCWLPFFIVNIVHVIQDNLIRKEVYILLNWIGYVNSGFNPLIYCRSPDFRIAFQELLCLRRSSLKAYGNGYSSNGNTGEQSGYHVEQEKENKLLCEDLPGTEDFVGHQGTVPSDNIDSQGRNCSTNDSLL
Conditions: Compound concentration 10 µM
Description: PDSP Primary Binding target: ADRB2 - Compounds are tested at 10 uM concentration, plate are incubated at room temperature in the dark for 90 minutes. Reaction are stopped by vacuum filtration onto 0.3% polyethyleneimine soaked filter mats using Filtermate harvester. Scintilation cocktail is then melted onto microwave-dried filters on a hot plate and the radio activity is counted in Microbia counter.
label 1 means recorded inhibition is 10% or above; label 0 means it is below 10%.

# Molecule, Discrete Label
records = [
    ("CC(C)C[C@H](NC(=O)N1CCCCCC1)C(=O)N[C@H](Cc1cn(C)c2ccccc12)C(=O)N[C@H](Cc1ccccn1)C(=O)O", "label 0"),
]

Item CN1CCC(C(=O)c2cccc(NC(=O)c3c(F)cc(F)cc3F)n2)CC1 with inhibition of 10% or above?
label 0

Does the molecule Cc1nn(C)c(C)c1-c1cccc2c1CC[C@H](N(C)C)C2 have recorded inhibition that is 10% or more?
label 1
